Percent Reduction in VEGF values for the compounds below.
Tested on: VEGF
assay method text: VEGF levels in ECV304 endothelial cells (ELISA)
Assay type: cell-based, Human
condition: 5ug/ml, 4 hours
State the answer as a number, implicitly in %.

Some entries whose results are on file:
COc1ccc(C2=C(c3cc(OC)c(OC)c(OC)c3)C(=NO)C(O)C2)cc1 (centres unmarked) :: 38.6
COc1ccc(C2=C(c3cc(OC)c(OC)c(OC)c3)C(=O)C(O)C2)cc1O (centres unmarked) :: 16.9
COc1ccc(C2=C(c3cc(OC)c(OC)c(OC)c3)/C(=N\O)C(O)C2)cc1F (centres unmarked) :: 12.9
COc1ccc(C2=C(c3cc(OC)c(OC)c(OC)c3)C(=O)C(O)C2)cc1 (centres unmarked) :: 23.7

# ---- query compound ----
// lookup Percent Reduction in VEGF for COc1ccc(C2=C(c3cc(OC)c(OC)c(OC)c3)C(=O)CC2O)cc1O (centres unmarked)
21.9
